Where do the numbers come from? From ChEMBL document CHEMBL1201862.

assay: HEp-2 cell cytotoxicity, dose response, cytotoxicity control for RSV inhibitor project, HTS (AID 2410); format: functional; details: human respiratory syncytial virus
Activity calls are given as the source filed them. No rule for the calls is given here.
Property Label: CC50

Below: 5 compounds and their reported CC50.
>>> result("Cc1ccc2c(c1)cc(C(=O)NCc1ccccc1)n2C")
"44.9 µM (active)"
>>> result("CNC(S)=Nc1sc2c(c1C(=O)OC)CCC2")
"36.2 µM (active)"
>>> result("CC(=O)COc1ccc2c3c(c(=O)oc2c1)CCCC3")
"> 50 µM (active)"
>>> result("CC(=O)NC12CC3CC(C1)CC(C(=O)Oc1ccc(N(C)S(=O)(=O)c4cc(C)ccc4C)cc1)(C3)C2")
"34.2 µM (active)"
>>> result("O=C(N/N=C/c1cccc(Oc2ccccc2)c1)c1cccc(Br)c1")
"17 µM (active)"

(Q) Tell me its CC50 given COCCN(C(=O)C(C)C)c1nnc(-c2cccc(C)c2)s1 as the entry.
(A) > 50 µM (active)

(Q) Tell me its CC50 given COC(=O)/C(=N/Nc1ccc(C)cc1)N1CCCc2ccccc21 as the entry.
(A) 22.3 µM (active)
